# Tested on: VEGF165 (human), P15692-4
# Sequence: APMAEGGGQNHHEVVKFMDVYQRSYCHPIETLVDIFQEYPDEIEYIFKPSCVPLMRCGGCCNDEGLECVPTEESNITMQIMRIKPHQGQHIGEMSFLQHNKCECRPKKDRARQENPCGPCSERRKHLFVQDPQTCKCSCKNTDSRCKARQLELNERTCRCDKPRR
# assay: SPR
# assay_conditions: N34 = Ds; biotin-dT at T54; SPR: 1x PBS (1 mM KH2PO4, 3 mM Na2HPO4, 155 mM NaCl; 205 mM NaCl for IFNγ), pH 7.4, 0.05% Nonidet P-40, 25°C; EMSA: 1x PBS, 0.05% NP-40, 25°C, 25 nM DNA, 50 nM …
property_label: Kd
Your answer should be a number followed by the unit of measure.

Measured Kd, GCGGTAAGCCGCGTCCGAAGGGGCATGCGGCGANCCCGAATGGGTCCGCCGCGTAGCG [V-Apt2 (AD)] : 2 pM

====

# Test system: VEGF165 (human), P15692-4
# Sequence: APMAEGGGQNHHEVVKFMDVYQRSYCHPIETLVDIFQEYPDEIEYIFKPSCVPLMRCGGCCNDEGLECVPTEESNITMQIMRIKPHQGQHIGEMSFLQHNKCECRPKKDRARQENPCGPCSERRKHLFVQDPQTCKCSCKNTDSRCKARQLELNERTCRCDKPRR
# assay: SPR
# assay_conditions: biotin-dT at T54; SPR: 1x PBS (1 mM KH2PO4, 3 mM Na2HPO4, 155 mM NaCl; 205 mM NaCl for IFNγ), pH 7.4, 0.05% Nonidet P-40, 25°C; EMSA: 1x PBS, 0.05% NP-40, 25°C, 25 nM DNA, 50 nM …
property_label: Kd (pM)
Express it in pM; write the number only.

Tested system VEGF165 (human), P15692-4; Kd recorded for GCGGTAAGCCGCGTCCGAAGGGGCATGCGGCGAACCCGAATGGGTCCGCCGCGTAGCG [V-Apt4 (AA)] was 160

Just for reference, paper PMC6895277 is where these values come from.
